Documented IC50 across a set of compounds
- TARGET_OF_ASSAY: Ubiquitin carboxyl-terminal hydrolase 30 (Homo sapiens) (UniProt Q70CQ3)
- Sequence (Q70CQ3 whole entry, looked up): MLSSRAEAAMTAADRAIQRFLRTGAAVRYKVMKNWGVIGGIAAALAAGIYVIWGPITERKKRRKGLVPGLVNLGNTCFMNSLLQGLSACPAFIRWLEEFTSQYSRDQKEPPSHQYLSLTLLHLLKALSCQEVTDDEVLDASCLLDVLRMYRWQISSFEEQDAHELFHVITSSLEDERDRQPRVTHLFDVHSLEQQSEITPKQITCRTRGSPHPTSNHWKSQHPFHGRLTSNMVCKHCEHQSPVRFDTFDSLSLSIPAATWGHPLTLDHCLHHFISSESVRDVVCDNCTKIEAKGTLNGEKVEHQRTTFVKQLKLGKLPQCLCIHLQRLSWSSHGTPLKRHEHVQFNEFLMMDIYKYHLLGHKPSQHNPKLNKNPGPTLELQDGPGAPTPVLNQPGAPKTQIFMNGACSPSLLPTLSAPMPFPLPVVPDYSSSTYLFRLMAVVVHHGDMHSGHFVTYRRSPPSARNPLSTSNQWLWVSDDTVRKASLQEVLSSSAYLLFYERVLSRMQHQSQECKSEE
- TEST_SUMMARY: inhibitors of ubiquitin-specific protease 30 deubiquitylating enzyme, concentration dependence, in vitro biochemical, validation of primary hits (AID 1645865)
- ASSAY_CONTEXT: purified USP30, Ub-rhodamine cleavage, fluorescence, 2 h
Active and inactive are the calls of the source.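 Rule for the calls: active = maximal inhibition of the USP30 enzyme reaching 30% or more across the dose series; inactive = the rest.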
METRIC: IC50

* Cn1c(CN2CCCCCC2)nc2cc(NC(=O)c3ccccc3)ccc21 | > 50 µM (inactive)
* CCC1=C(c2ccc(C)cc2)S(=O)(=O)NC1=NCC(=O)NCc1ccccc1F | > 50 µM (inactive)
* Cc1c(Cl)cccc1NC(=O)Cn1c(=O)c2ccccc2n2nncc12 | > 50 µM (inactive)
* COc1c(Cl)ccc2c(=O)c3c(O)c4c5c(c3oc12)OCO[C@H]5[C@@H](OC)c1cc2c(c(O)c1-4)C(=O)N(C)[C@H](OC)[C@@H]2O | 4.94 µM
* O=C(Nc1ccccc1)c1nc(-c2cn(Cc3ccc(F)cc3)nn2)no1 | 28.6 µM
* COC1/C=C/OC2(C)Oc3c(C)c(O)c4c(c3C2=O)C(=O)C=C(NC(=O)/C(C)=C\C=C\C(C)C(O)C(C)C(O)C(C)C(OC(C)=O)C1C)C4=O (centres undefined) | > 50 µM (inactive)
* O=C(NCc1ccccc1)Nc1cccc2ccccc12 | 31.9 µM
* COCCCNC(=O)c1ccc(Cn2c(=O)c3ccccc3n(CC(=O)NC3CCCCC3)c2=O)cc1 | 24.8 µM
* COc1ccc(C(C(=O)NCc2ccccc2)N(C(=O)CCN2CCc3ccccc32)c2ccc(C)c(C)c2)cc1 (centres undefined) | > 50 µM (inactive)

Source listed as PubChem BioAssay AID1645865.
